Recorded values, source paper PMC5309722.

Substrate: C=CC1=C(C)/C(=C/c2[nH]c(/C=C3N=C(/C=C4\NC(=O)C(C)=C4C=C)C(C)=C\3CCC(=O)O)c(CCC(=O)O)c2C)NC1=O
Assay: steady-state kinetics, A450 bilirubin formation
Format: biochemical, Synechocystis sp. PCC 6803
Conditions: 100 μM NADPH, 100 mM citrate pH 5.75
quantity.name: Km (µM)

{"columns": ["protein", "test.result"],
 "data": [
  ["Syn BVR (Synechocystis sp. PCC 6803 substr. Kazusa; R185K) (protein, full length, 328 residues; N-terminal His6 tag (pET15b), E. coli C41(DE3); tag cut with thrombin for crystals) MSENFAVATPVRVGIVGTGYAAQRRAEVFRGDRRSQLVSFWGNSEANTAKFADTFGVRPQQSWQALINDPEIDLVLIATINQLHGAIAEAALQAGKHVVLEYPLALTYAMGKKLQQLAREKGKLLHVEHIELLGGVHQAIRQNLGKIGEVFYARYSTIMGQNPAPQRWTYHHQQFGFPLVAALSKISRFTDLFGTVQQVDAQCRFWDQPNPEYFRACLATAYLQFNNGLKAEVIYGKGEVFHQNERIFTLHGDRGTLIFVGETGRLIQGQTETEITVGSRRGLFRQDTEAVLDYLTTGKPLYVDLEASLYALEVADLCAQACGYKVEN", 12.6]
]}
